assay-system: alpha-2-receptor
method-summary: Radioligand binding, alpha-2 adrenoceptor, rat cerebral cortices, [^3 H]-rauwolscine
protocol-conditions: rat cerebral cortices, [^3 H]-rauwolscine
pKi: −log10 of the molar value. Where a name gives a salt, the structure may show the parent alone.
measured-parameter: pKi

>>> quantitative_result("CN(CCc1cccs1)CC1CCCc2cc(O)ccc21 (stereo not drawn) [Example 7, hydrochloride]")
8.80
>>> quantitative_result("CN(CCc1cccc(F)c1)CC1CCCc2ccccc21 (stereo not drawn) [Example 70, hydrochloride]")
8.30
>>> quantitative_result("COc1ccc2c(c1)CCCC2CN(C)CCC1CCCC1 (stereo not drawn) [Example 6f, hydrochloride]")
8.19
>>> quantitative_result("COc1ccc2c(c1)CCCC2CN(C)CCc1cccs1 (stereo not drawn) [Example 5]")
9.10
>>> quantitative_result("COc1ccc2c(c1)CCC2CN1CCC(c2cccc(F)c2)C1 (stereo not drawn) [Example 153, hydrochloride]")
8.07
>>> quantitative_result("CCN(CCc1cccs1)CC1CCCc2c1ccc1c2OCO1 (stereo not drawn) [Example 164, hydrochloride]")
8.43
>>> quantitative_result("CCCN(CCc1cccs1)CC1CCCc2cc(OC)ccc21 (stereo not drawn) [Example 58, hydrochloride]")
7.74
>>> quantitative_result("COc1ccc2c(c1OC)CCCC2CN(C)CCc1cccs1 (stereo not drawn) [Example 86, hydrochloride]")
8.52
>>> quantitative_result("CN(CCc1cccs1)CC1CCCc2c1ccc(O)c2I (stereo not drawn) [Example 115, hydrochloride]")
8.52
>>> quantitative_result("CN(CCc1cccs1)CC1CCCc2c(Cl)cccc21 (stereo not drawn) [Example 129, hydrochloride]")
8.44
>>> quantitative_result("COc1ccc2c(c1)CCCC2CN(C)CCC1CCCS1 (stereo not drawn) [Example 6h, hydrochloride]")
8.46
>>> quantitative_result("CN(CCc1cccs1)CC1CCCc2c1ccc1c2OCO1 (stereo not drawn) [Example 23, hydrochloride]")
8.77
>>> quantitative_result("COc1ccc2c(c1)C(CN(C)CCc1cccs1)CCC2 (stereo not drawn) [Example 27, hydrochloride]")
8.70
>>> quantitative_result("CN(c1ccc2c(c1)CCCC2CN1CCC(c2ccccc2)C1)S(C)(=O)=O (stereo not drawn) [Example 193, hydrochloride]")
8.89
>>> quantitative_result("CCN(CCc1ccsc1)CC1CCCc2cc(OC)ccc21 (stereo not drawn) [Example 44, hydrochloride]")
8.25
>>> quantitative_result("CCN(CCc1cccc(F)c1)CC1CCCc2cc(OC)ccc21 (stereo not drawn) [Example 42, hydrochloride]")
8.18
>>> quantitative_result("CN(CCc1cccs1)CC1CCCc2ccccc21 (stereo not drawn) [Example 22, hydrochloride]")
8.89
>>> quantitative_result("COc1cccc2c1CCCC2CN1CCC(c2cccs2)C1 (stereo not drawn) [Example 146, hydrochloride]")
8.31
